Test: Inhibition of yeast Ero1p by fluorescence assay
Parameters: species or system Saccharomyces cerevisiae
Provide the reported IC50 of each item.
Dear colleague, please return just the value in µM, with no unit written.

Challenge: Param item = COc1cc(/C=C2\C(=O)NN(c3ccc(Br)cc3)C2=O)cc(Br)c1OC(C)=O ; retrieve measured IC50.
Response given: 31

Challenge: Name the recorded IC50 for COc1ccc(/C=C2/C(=O)N(c3ccc(Cl)cc3)N=C2C(F)(F)F)cc1OC .
Response given: 73

----------
Target: ERO1-like protein alpha (Homo sapiens)
Sequence (Q96HE7 whole entry): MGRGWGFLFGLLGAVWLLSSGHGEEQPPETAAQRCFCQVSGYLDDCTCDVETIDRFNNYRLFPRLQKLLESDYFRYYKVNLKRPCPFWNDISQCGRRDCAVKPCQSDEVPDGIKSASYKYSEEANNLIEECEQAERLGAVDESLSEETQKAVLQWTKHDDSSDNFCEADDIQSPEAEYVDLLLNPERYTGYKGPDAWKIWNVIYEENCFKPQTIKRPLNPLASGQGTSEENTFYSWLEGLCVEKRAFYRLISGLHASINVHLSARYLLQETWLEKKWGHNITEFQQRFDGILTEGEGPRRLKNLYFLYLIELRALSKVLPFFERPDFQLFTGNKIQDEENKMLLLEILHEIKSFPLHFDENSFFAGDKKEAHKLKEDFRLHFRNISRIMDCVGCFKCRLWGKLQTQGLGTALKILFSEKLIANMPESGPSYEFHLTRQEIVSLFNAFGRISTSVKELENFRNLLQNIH
Observed Property: pIC50
# log scale: pIC50 equals minus log10 of the concentration in mol/L

Challenge: Report pIC50 for O=C(N/N=C1\C(=O)N(Cc2cccc([N+](=O)[O-])c2)c2ccccc21)c1cc2ccccc2cc1O please.
Response given: 3.97

Challenge: Need pIC50 of O=C(Cn1cnc([N+](=O)[O-])c1[N+](=O)[O-])Nc1cc(Oc2ccccc2)cc([N+](=O)[O-])c1 , thanks.
Response given: 5.00

Challenge: Look at this molecule and give its reported pIC50. CCOc1cc(/C=C2\C(=O)NC(=O)N(c3ccc(C)cc3)C2=O)ccc1OCCOc1cccc2ccccc12
Response given: 4.77

Challenge: Consider the molecule O=C1NC(=O)N(c2ccc(Cl)cc2)C(=O)/C1=C/Nc1cccc(O)c1 and give its measured pIC50.
Response given: 4.10

Challenge: Fill in the blank: the reported pIC50 of O=C(Nc1sc(-c2ccccc2)cc1C(=O)O)c1ccc(Br)cc1 is ____.
Response given: 4.17
